- Tested on: NCI-H522 lung
- protocol_summary: NCI tumour cell line growth inhibition, 48 h
outcome_measure: TGI

Respond only with TGI recorded for O=C1SC(c2ccccc2)(c2ccccc2)c2ccccc21
> 100 µM

Report TGI for O=C1OC2c3ccccc3C(=O)C2(c2ccccc2)N1c1ccccc1 (configuration not stated)
> 200 µM

Give a short answer stating reported TGI for O=Cc1[nH]c(=O)[nH]c(=O)c1CCl .
> 100 µM

Specify TGI for N#CCc1ccc(/C(C#N)=C2/OC(=N)C(c3ccc(CC#N)cc3)C2=O)cc1 (configuration not stated) and stop.
> 100 µM

Consider the molecule COc1cc2c3c(n(CCCCNC(=O)OCC4c5ccccc5-c5ccccc54)c(=O)c2cc1OC)-c1cc2c(cc1C3=O)OCO2 and give its recorded TGI.
> 100 µM

Given Cc1ccc(NC(=O)C(=O)C2NC(=S)NC2=O)c([N+](=O)[O-])c1 (configuration not stated) , respond with its TGI.
> 100 µM

Specify TGI for O=C(O)/C=C/c1cnc[nH]1 and stop.
> 500 µM
